Experiment: Inhibition of bovine brain tubulin polymerization after 20 mins by turbidimetry
Parameters: species or system Bos taurus
Measured parameter: IC50 (µg/mL)
Answers are plain numbers, in µg/mL.

>>> df
                                chem_smiles  numeric_value
0  COc1ccc(/C=C/c2cc(OC)cc(OC)c2/C=C/C(=O)/C=C/c2ccccc2OC)cc1           5.99
1  COc1ccc(/C=C/c2cc(OC)cc(OC)c2/C=C/C(=O)/C=C/c2ccc(C)cc2)cc1           2.68
2  COc1ccc(/C=C/c2cc(OC)cc(OC)c2/C=C/C(=O)/C=C/c2ccccc2)cc1           6.28
3  COc1ccc(/C=C/c2cc(OC)cc(OC)c2/C=C/C(=O)/C=C/c2cc(F)ccc2C)cc1           1.81
4  COc1ccc(/C=C/c2cc(OC)cc(OC)c2/C=C/C(=O)/C=C/c2cc(OC)ccc2OC)cc1           2.11
5  COc1ccc(/C=C/c2cc(OC)cc(OC)c2/C=C/C(=O)/C=C/c2cccc(C)c2)cc1           3.08

Take each entry in turn and give its IC50.
1. COc1ccc(/C=C/c2cc(OC)cc(OC)c2/C=C/C(=O)/C=C/c2cc(OC)cc(OC)c2)cc1
2. COc1ccc(/C=C/c2cc(OC)cc(OC)c2/C=C/C(=O)/C=C/c2cccc(OC)c2)cc1
3. COc1ccc(/C=C/C(=O)/C=C/c2c(/C=C/c3ccc(OC)cc3)cc(OC)cc2OC)cc1
4. COc1ccc(/C=C/c2cc(OC)cc(OC)c2/C=C/C(=O)/C=C/c2ccc(C)c(C)c2)cc1

1.45
8.05
2.89
3.57
